- PROTOCOL_TEXT: fission yeast growth modulation, primary screen, strain 972, OD600, 24 h, no modulator (AID 1090);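 further: basal condition with compound alone and no growth modifier present; test concentration not given here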
- SETTINGS: S. pombe 972 growth, higher = more signal, called active from +8 up or from −8 down

>  <ENTRY_SMILES>
C=CCNC(=O)[C@H]1[C@@H]2C(=O)O[C@@H](c3ccccc3)[C@@H](c3ccccc3)N2[C@@H](c2ccc(OCCO)cc2)[C@]12C(=O)N(C(=O)OCCOC)c1ccc(C#CCC(C(=O)OC)C(=O)OC)cc12

>  <z-score>
1.07

$$$$
>  <ENTRY_SMILES>
CCCCC=C[C@@H](NC(=O)C(C)(C)C)c1ccccc1

>  <z-score>
1.84

$$$$
>  <ENTRY_SMILES>
CC(C)(C)OC(=O)CC[C@]1(C(N)=O)N=C(c2ccc(OCCCO)cc2)O[C@H]1c1ccccc1N=[N+]=[N-]

>  <z-score>
0.138

$$$$
>  <ENTRY_SMILES>
C=C(CCCC)/C(=C/C[C@@H](OC(C)=O)c1ccc(OCCO)cc1)c1cc(C(=O)OC)ccc1OC

>  <z-score>
-0.52

$$$$
>  <ENTRY_SMILES>
C=CCOC(=O)[C@H]1[C@@H]2C(=O)O[C@@H](c3ccccc3)[C@@H](c3ccccc3)N2[C@@H](c2ccc(OCCOC(=O)[C@@H]3C[C@@H]4C(=O)N[C@@H](Cc5ccccc5)C(=O)N4[C@@H]3c3ccc(O)cc3)cc2)[C@]12C(=O)Nc1ccc(I)cc12

>  <z-score>
2.14

$$$$
>  <ENTRY_SMILES>
C=C1C(=O)C=C2CN(C(=O)c3ccccc3)[C@@](Cc3ccc(F)cc3)(C(=O)OC)[C@@H]12

>  <z-score>
-15.9

$$$$
>  <ENTRY_SMILES>
C[C@]1(C(=O)O)c2ccccc2C(=O)N(Cc2cc(C(F)(F)F)cc(C(F)(F)F)c2)[C@H]1c1ccc(CO)cc1

>  <z-score>
0.559

$$$$
>  <ENTRY_SMILES>
COC(=O)C(CC#Cc1ccc2c(c1)[C@]1(C(=O)N2)[C@H](C(=O)N2CCN(c3ncccn3)CC2)[C@H]2C(=O)O[C@H](c3ccccc3)[C@H](c3ccccc3)N2[C@@H]1c1ccc(O)cc1)C(=O)OC

>  <z-score>
1.1

$$$$
>  <ENTRY_SMILES>
C=C(C(=O)CC[C@@H](OC(=O)c1ccccc1-c1ccccc1C(=O)O)c1ccc(CO)o1)C(C)C

>  <z-score>
-0.39

$$$$
>  <ENTRY_SMILES>
COC(=O)[C@@]1(Cc2ccccc2)[C@H]2c3cc(C(=O)N(C)C)n(Cc4nc5ccccc5[nH]4)c3C[C@H]2CN1C(=O)c1ccccc1

>  <z-score>
0.338

$$$$
>  <ENTRY_SMILES>
C#CCN(C(=O)OC(C)(C)C)[C@H](CO)c1ccccc1

>  <z-score>
-2.99

$$$$
>  <ENTRY_SMILES>
C=C(C(=O)CC[C@H](OC(=O)c1ccccc1-c1ccccc1C(=O)O)c1ccc(OCCO)cc1)C(C)C

>  <z-score>
-0.788

$$$$
>  <ENTRY_SMILES>
C=CCOC(=O)[C@@H]1[C@H]2C(=O)O[C@H](c3ccccc3)[C@H](c3ccccc3)N2[C@H](c2ccc(OCCOC(=O)[C@H]3C[C@H]4C(=O)N[C@@H](CCCCN(C)C)C(=O)N4[C@H]3c3cccc(OCCO)c3)cc2)[C@@]12C(=O)Nc1ccccc12

>  <z-score>
1.12

$$$$
